# Assay Protocol: Ratio of drug level in alveolar macrophage to plasma of healthy human undergoing fiber-optic bronchoscopy at 10 mg/kg, iv once daily for 3 days measured at 12 hrs after start of infusion
# Assay Conditions: alveolar macrophages / plasma
Value Type: Kp at 12 h

Look at this compound and give its reported Kp at 12 h. CCCCCCCCCCNCCN[C@@]1(C)C[C@H](O[C@H]2[C@H](Oc3c4cc5cc3Oc3ccc(cc3Cl)[C@@H](O)[C@@H](NC(=O)[C@@H](CC(C)C)NC)C(=O)N[C@@H](CC(N)=O)C(=O)N[C@H]5C(=O)N[C@H]3C(=O)N[C@H](C(=O)N[C@H](C(=O)O)c5cc(O)c(CNCP(=O)(O)O)c(O)c5-c5cc3ccc5O)[C@H](O)c3ccc(c(Cl)c3)O4)O[C@H](CO)[C@@H](O)[C@@H]2O)O[C@@H](C)[C@H]1O
1.93

* * *

# Assay Protocol: Cmax in healthy human at 10 mg/kg, iv once daily for 3 days measured at 24 after start of infusion
# Assay type: ADME, organism-based
# Design: dose 10 mg/kg, route intravenous
# Assay Conditions: in vivo
Value Type: Cmax

Look at this compound and give its reported Cmax. CCCCCCCCCCNCCN[C@@]1(C)C[C@H](O[C@H]2[C@H](Oc3c4cc5cc3Oc3ccc(cc3Cl)[C@@H](O)[C@@H](NC(=O)[C@@H](CC(C)C)NC)C(=O)N[C@@H](CC(N)=O)C(=O)N[C@H]5C(=O)N[C@H]3C(=O)N[C@H](C(=O)N[C@H](C(=O)O)c5cc(O)c(CNCP(=O)(O)O)c(O)c5-c5cc3ccc5O)[C@H](O)c3ccc(c(Cl)c3)O4)O[C@H](CO)[C@@H](O)[C@@H]2O)O[C@@H](C)[C@H]1O
116 µg/mL

* * *

# Assay Protocol: Ratio of drug level in alveolar macrophage to plasma of healthy human undergoing fiber-optic bronchoscopy at 10 mg/kg, iv once daily for 3 days measured at 24 hrs after start of infusion
# Assay Conditions: alveolar macrophages / plasma
Value Type: Kp at 24 h
Lab note: jot the number down without any unit.

Look at this compound and give its reported Kp at 24 h. CCCCCCCCCCNCCN[C@@]1(C)C[C@H](O[C@H]2[C@H](Oc3c4cc5cc3Oc3ccc(cc3Cl)[C@@H](O)[C@@H](NC(=O)[C@@H](CC(C)C)NC)C(=O)N[C@@H](CC(N)=O)C(=O)N[C@H]5C(=O)N[C@H]3C(=O)N[C@H](C(=O)N[C@H](C(=O)O)c5cc(O)c(CNCP(=O)(O)O)c(O)c5-c5cc3ccc5O)[C@H](O)c3ccc(c(Cl)c3)O4)O[C@H](CO)[C@@H](O)[C@@H]2O)O[C@@H](C)[C@H]1O [TELAVANCIN]
6.67

* * *

# Tested on: Homo sapiens
# Assay Protocol: Plasma protein binding in healthy human undergoing fiber-optic bronchoscopy at 10 mg/kg, iv once daily for 3 days
# Assay Conditions: read-out: PPB (converted)
Value Type: fraction unbound at 72 h
Lab note: jot the number down without any unit.

Look at this compound and give its reported fraction unbound at 72 h. CCCCCCCCCCNCCN[C@@]1(C)C[C@H](O[C@H]2[C@H](Oc3c4cc5cc3Oc3ccc(cc3Cl)[C@@H](O)[C@@H](NC(=O)[C@@H](CC(C)C)NC)C(=O)N[C@@H](CC(N)=O)C(=O)N[C@H]5C(=O)N[C@H]3C(=O)N[C@H](C(=O)N[C@H](C(=O)O)c5cc(O)c(CNCP(=O)(O)O)c(O)c5-c5cc3ccc5O)[C@H](O)c3ccc(c(Cl)c3)O4)O[C@H](CO)[C@@H](O)[C@@H]2O)O[C@@H](C)[C@H]1O
0.1
